# target_system: hPD-L1 (Homo sapiens)
# assay_comment: Radiolabeled binding assay on immobilized hPD-L1
# assay_context: [35S]-labeled SPAM variants, binding normalized to [35S]-SPAM, n=3
Where no end group is shown, it is not given here.
experimental_readout: effect of mutation on hPD-L1 binding (alanine scanning)

substance="W13A: SPAM variant with alanine substituted at position 13 (MPIFLDHILNKFAILHYAGSGSSG; also: [35S]-labeled methionine, peptide-RNA fusion)" measured="completely abolished"
substance="A18: SPAM variant with glycine substituted for alanine at position 18 (MPIFLDHILNKFWILHYGGSGSSG; also: [35S]-labeled methionine, peptide-RNA fusion)" measured="completely abolished"
substance="L15A: SPAM variant with alanine substituted at position 15 (MPIFLDHILNKFWIAHYAGSGSSG; also: [35S]-labeled methionine, peptide-RNA fusion)" measured="completely abolished"

Every entry's value here was drawn from paper PMC7416570.
